Tested on: Candida albicans
Type: functional, 0304103
experimental_parameters: time 48 hrs
Description: Synergistic antifungal activity against azole-resistant Candida albicans 0304103 assessed as fractional inhibitory concentration in presence of fluconazole incubated for 48 hrs by CLSI based checkerboard microdilution assay
measurement_type: FIC (µg/mL)
Quick note: give the figure in µg/mL, leave out the unit.

See these solved cases before continuing.
- compound_string: "CC(C)c1cc(-c2n[nH]c(=O)n2-c2cccc(NC(=O)CCCCC(=O)NO)c2)c(O)cc1O"
  FIC [µg/mL]: 32
- compound_string: "CC(C)c1cc(-c2n[nH]c(=O)n2-c2ccc(C(=O)NCCCCC(=O)NO)cc2)c(O)cc1O"
  FIC [µg/mL]: 8
- compound_string: "CC(C)c1cc(-c2n[nH]c(=O)n2-c2ccc(NC(=O)CCCCCC(=O)NO)cc2)c(O)cc1O"
  FIC [µg/mL]: 8
- compound_string: "CC(C)c1cc(-c2n[nH]c(=O)n2-c2ccc(C(=O)NCCCCCCC(=O)NO)cc2)c(O)cc1O"
  FIC [µg/mL]: 1

Give the value of FIC reported for the following: CNC(=O)CCCCCCCNC(=O)c1cccc(-n2c(-c3cc(C(C)C)c(O)cc3O)n[nH]c2=O)c1
2

Report FIC for CC(C)c1cc(-c2n[nH]c(=O)n2-c2cccc(NC(=O)CCCCCC(=O)NO)c2)c(O)cc1O
32

Specify reported FIC for the molecule shown: CC(C)c1cc(-c2n[nH]c(=O)n2-c2ccc(NC(=O)CCCC(=O)NO)cc2)c(O)cc1O
1
